- Organism: Mus musculus
- Procedure Text: Tested for Photodynamic activity of Sensitizers for cultivated SSK2 cells
- Type: ADME, cell-based
- Settings: read-out: LD50 (the source's name)
Measured Parameter: CC50 (µM)

Compound	Measured Parameter	Test Value
C=CC1=C(C)c2cc3[nH]c(cc4nc(cc5[nH]c(cc1n2)c(C)c5CCC(=O)O)C(CCC(=O)O)=C4C)c(C)c3C=C [PROTOPORPHYRIN DISODIUM]	CC50	19
COCCC1=Cc2nc1ccc1[nH]c(c3nc(ccc4[nH]c2cc4CCOC)C(CCOC)=C3)c2c(C(=O)OC)c(C(=O)O)ccc12	CC50	0.13
